Assignment: determine reported inhibition for the given compounds.
- experimentalTarget: Genome polyprotein (dengue virus type 2)
- runConditions: Thailand/16681/1984, Concentration 25.0 uM, Number of replicates 1.0
About 110 (5.5%) of roughly 2,000 compounds showed an effect of 50% or more. The full list was thinned out, with strong results kept by preference.
Answers are plain numbers, in %.

O=Cc1ccc(N2CCC(C(=O)N[C@@H](Cc3ccccc3)c3ccccc3)CC2)cc1	4.84
O=Cc1ccc(N2CCC(C(=O)N3CCN(C(=O)[C@H]4COc5ccccc5O4)CC3)CC2)cc1	13
O=Cc1ccc(N2CCC(C(=O)NCc3ccccc3Br)CC2)cc1	12.3
O=Cc1ccc(N2CCC(C(=O)N3CCNC(=O)C34CCCCC4)CC2)cc1	13.7

Now take the following compound into account.
Query string: For the compound O=Cc1ccc(N2CCC(C(=O)N(Cc3ccco3)Cc3cccs3)CC2)cc1 , what inhibition is on record?
Result string: 11

---

Assignment: determine reported inhibition for the given compounds.
- experimentalTarget: Genome polyprotein (dengue virus type 2)
- runConditions: Thailand/16681/1984, Concentration 25.0 uM, Number of replicates 1.0
Hit rate of the full screen: of about 2,000 compounds, about 110 (5.5%) showed an effect of 50% or more. The entries come from a sample that favours strong results as a whole.
Reply with the number, then its unit.

Cc1nc(NC(=O)C2CCN(c3ccc(C=O)cc3)CC2)ccc1Br	12.1%
O=Cc1ccc(N2CCC(C(=O)Nc3c(Cl)cc(Cl)cc3Br)CC2)cc1	13.4%
CN(Cc1ccc(N2CCOCC2)cc1)C(=O)C1CCN(c2ccc(C=O)cc2)CC1	13.2%
O=Cc1ccc(N2CCC(C(=O)NCc3ccc(C(F)(F)F)nc3)CC2)cc1	14.9%
O=Cc1ccc(N2CCC(C(=O)Nc3cc(Cl)c(O)c(Cl)c3)CC2)cc1	100%
O=Cc1ccc(N2CCC(C(=O)Nc3cccc4ccc(O)cc34)CC2)cc1	35.2%
CCc1ccc(CN(CC(C)C)C(=O)C2CCN(c3ccc(C=O)cc3)CC2)cc1	13.3%
O=Cc1ccc(N2CCC(C(=O)NC3CN(C(c4ccccc4)c4ccccc4)C3)CC2)cc1	2.62%

Parameters: items (list). Returns: inhibition for each item.
1. O=Cc1ccc(N2CCC(C(=O)Nc3ccc(O)cc3[N+](=O)[O-])CC2)cc1
2. O=Cc1ccc(N2CCC(C(=O)N3CCc4ccc([N+](=O)[O-])cc4C3)CC2)cc1
3. NC(=O)c1ccc(Cl)c(NC(=O)C2CCN(c3ccc(C=O)cc3)CC2)c1
4. O=Cc1ccc(N2CCC(C(=O)N3CCO[C@@H](c4ccccc4)C3)CC2)cc1
5. O=Cc1ccc(N2CCC(C(=O)Nc3ccc(Br)cc3O)CC2)cc1
6. O=Cc1ccc(N2CCC(C(=O)N3CCCCC[C@H]3c3ccco3)CC2)cc1
7. O=Cc1ccc(N2CCC(C(=O)Nc3cc(Cl)c(F)c(Cl)c3)CC2)cc1
8. O=Cc1ccc(N2CCC(C(=O)Nc3ncnc(Cl)c3Cl)CC2)cc1

Result string:
["24.5%", "16.6%", "13.8%", "8.68%", "31.4%", "13.4%", "13.1%", "10.5%"]

Parameters: items (list). Returns: inhibition for each item.
1. C[C@H]1CCC[C@H](C)N1CCNC(=O)C1CCN(c2ccc(C=O)cc2)CC1
2. O=Cc1ccc(N2CCC(C(=O)N3CCCN(c4ccc(C(F)(F)F)cn4)CC3)CC2)cc1
3. O=Cc1ccc(N2CCC(C(=O)Nc3cccc(C(F)(F)F)n3)CC2)cc1
4. CN(C)C1(CNC(=O)C2CCN(c3ccc(C=O)cc3)CC2)CCOCC1
5. O=Cc1ccc(N2CCC(C(=O)N3CCN(Cc4ccc(Cl)nc4)CC3)CC2)cc1
6. C[C@@H](Cc1ccc(O)cc1)NC(=O)C1CCN(c2ccc(C=O)cc2)CC1
7. O=Cc1ccc(N2CCC(C(=O)N[C@H](c3ccccc3)C(F)(F)F)CC2)cc1
8. Cc1ccc(NC(=O)C2CCN(c3ccc(C=O)cc3)CC2)cc1I

Result string:
12.4%
9.22%
13.5%
12.1%
10.1%
12.7%
13.1%
9.87%

---

- experimentalTarget: Genome polyprotein (dengue virus type 2) (UniProt P29990)
- runConditions: Thailand/16681/1984, Concentration 25.0 uM, Number of replicates 1.0
The campaign covered roughly 2,000 compounds. About 110 (5.5%) showed an effect of 50% or more. Shown is part of a subset that was picked to be rich in strong results.
measurementLabel: inhibition

Below: 6 compounds and their reported inhibition.
O=Cc1ccc(N2CCC(C(=O)Nc3nnc(Cl)cc3Br)CC2)cc1	33%
O=Cc1ccc(N2CCC(C(=O)Nc3ccc4scnc4c3)CC2)cc1	13%
COCCCN(Cc1ccccc1)C(=O)C1CCN(c2ccc(C=O)cc2)CC1	16.7%
CN(CCO[Si](C)(C)C(C)(C)C)C(=O)C1CCN(c2ccc(C=O)cc2)CC1	11.8%
CCCN(C[C@H](O)COc1ccccc1C(=O)CCc1ccccc1)C(=O)C1CCN(c2ccc(C=O)cc2)CC1	15.7%
O=Cc1ccc(N2CCC(C(=O)N[C@@H]3CCCN(Cc4ccccc4)C3)CC2)cc1	13.3%

Parameters: items (list). Returns: inhibition for each item.
1. Cc1cccc(NC(=O)CNC(=O)C2CCN(c3ccc(C=O)cc3)CC2)c1C
2. O=Cc1ccc(N2CCC(C(=O)NCCCn3nccc3C3CC3)CC2)cc1

Result string:
1: 13%; 2: 15.6%

Parameters: items (list). Returns: inhibition for each item.
1. COc1cc(Cl)c(C)cc1NC(=O)C1CCN(c2ccc(C=O)cc2)CC1
2. O=Cc1ccc(N2CCC(C(=O)N3CCN(c4ccnc5cc(Cl)ccc45)CC3)CC2)cc1
3. C[C@@H](Cc1ccc(C(F)(F)F)cc1)NC(=O)C1CCN(c2ccc(C=O)cc2)CC1
4. O=Cc1ccc(N2CCC(C(=O)N3CCN(c4ccc(F)cc4F)CC3)CC2)cc1
5. O=Cc1ccc(N2CCC(C(=O)NCCc3cccc4ccccc34)CC2)cc1
6. O=Cc1ccc(N2CCC(C(=O)NCCc3cccc(Br)c3)CC2)cc1
7. O=Cc1ccc(N2CCC(C(=O)N3CCc4c(Br)cccc4C3)CC2)cc1

Result string:
["13.9%", "1.86%", "8.27%", "11.4%", "11.1%", "11.8%", "2.83%"]

---

Assignment: determine reported inhibition for the given compounds.
- experimentalTarget: Genome polyprotein (dengue virus type 2) (UniProt P29990)
- runConditions: Thailand/16681/1984, Concentration 25.0 uM, Number of replicates 1.0
Screen size: about 2,000 compounds; about 110 (5.5%) showed an effect of 50% or more. For the sample, strong results were picked, then their nearest neighbours and some compounds at random.
Numbers only, in %.

Parameters: items (list). Returns: inhibition for each item.
1. O=Cc1ccc(N2CCC(C(=O)NCC(=O)Nc3ccc(F)c(F)c3)CC2)cc1
2. O=Cc1ccc(N2CCC(C(=O)Nc3ncc(Br)cc3O)CC2)cc1
3. CN(CCc1ccccc1F)C(=O)C1CCN(c2ccc(C=O)cc2)CC1
4. O=Cc1ccc(N2CCC(C(=O)N3CCC(c4nc5ccccc5s4)CC3)CC2)cc1
5. Cc1ccc(NC(=O)C2CCN(c3ccc(C=O)cc3)CC2)cc1Br
6. O=Cc1ccc(N2CCC(C(=O)Nc3cc(C(F)(F)F)ccn3)CC2)cc1

Result string:
[14.1, 52.8, 13.4, 14.3, 8.71, 10.8]

Parameters: items (list). Returns: inhibition for each item.
1. COc1ccc(CN(C)C(=O)C2CCN(c3ccc(C=O)cc3)CC2)c(OC)c1
2. O=Cc1ccc(N2CCC(C(=O)Nc3ccccc3OCC(F)(F)F)CC2)cc1
3. O=Cc1ccc(N2CCC(C(=O)NCc3c(F)ccc(F)c3F)CC2)cc1
4. O=Cc1ccc(N2CCC(C(=O)NCc3ccc(-c4ccccn4)cc3)CC2)cc1
5. O=Cc1ccc(N2CCC(C(=O)N3CCN(CCc4ccccc4)CC3)CC2)cc1

Result string:
[14, 13.4, 12.3, 6.55, 33]

Parameters: items (list). Returns: inhibition for each item.
1. CC(=O)N1CCC(N(C)C(=O)C2CCN(c3ccc(C=O)cc3)CC2)CC1
2. CCN(CC)C1CCN(C(=O)C2CCN(c3ccc(C=O)cc3)CC2)CC1
3. CN(C(=O)C1CCN(c2ccc(C=O)cc2)CC1)[C@H]1CCN(Cc2ccccc2)C1
4. Cc1c(Br)cnc(NC(=O)C2CCN(c3ccc(C=O)cc3)CC2)c1[N+](=O)[O-]
5. CCCCN(Cc1ccc(F)cc1)C(=O)C1CCN(c2ccc(C=O)cc2)CC1
6. Cc1ccc2cccc(NC(=O)C3CCN(c4ccc(C=O)cc4)CC3)c2n1

Result string:
1. 10.9
2. 12.6
3. 13.8
4. 13.3
5. 16.4
6. 50.9
